B1: RHOBTB2 (parent)
chain: HHHHGRDFLLRAASFDVCESVDEA

variants of: B1; assay: protein stability index of a GFP-peptide fusion (GPS, HEK-293T) (PSI 1-6); higher = more stable; conditions: c terminus: a fixed tail appended;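 further: lentivirally expressed fusions sorted by FACS into six bins by GFP to DsRed ratio, PSI derived from sequencing read proportions per bin multiplied by bin number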
READOUT KIND: protein stability index
Give bare numbers.

1. HHHHGADFLLRAASFDVCESVDEA [R6A] | 4.33
2. HMHHGRDFLLRAASFDVCESVDEA [H2M] | 3.96
3. HHHHDRDFLLRAASFDVCESVDEA [G5D] | 4.86

Parameter requested: protein stability index. Apply to each item below.
1. HHHHGRDPLLRAASFDVCESVDEA [F8P]
2. HWHHGRDFLLRAASFDVCESVDEA [H2W]

### Response
1. 5.21
2. 3.35

I'm hoping you can list protein stability index for every variant here, please.
1. HHHHMRDFLLRAASFDVCESVDEA [G5M]
2. HHHHGRFFLLRAASFDVCESVDEA [D7F]
3. HHHHGRNFLLRAASFDVCESVDEA [D7N]
4. HHHHGRDFLLRNASFDVCESVDEA [A12N]
5. HHHHGRDVLLRAASFDVCESVDEA [F8V]
6. HHHHGRDFLLRWASFDVCESVDEA [A12W]
7. HHHHGRDFLLRAAAFDVCESVDEA [S14A]

### Response
3.42
2.06
3.25
3.82
4.66
2.67
3.55

meta.source: the supplement of paper PMC10567573
